// reported CDC (10 ug/ml), RAJI for each item listed
# EXPERIMENTAL SYSTEM: T1, human CD20 antigen (human, UniProt P11836 1-297)
# T1 sequence (looked up): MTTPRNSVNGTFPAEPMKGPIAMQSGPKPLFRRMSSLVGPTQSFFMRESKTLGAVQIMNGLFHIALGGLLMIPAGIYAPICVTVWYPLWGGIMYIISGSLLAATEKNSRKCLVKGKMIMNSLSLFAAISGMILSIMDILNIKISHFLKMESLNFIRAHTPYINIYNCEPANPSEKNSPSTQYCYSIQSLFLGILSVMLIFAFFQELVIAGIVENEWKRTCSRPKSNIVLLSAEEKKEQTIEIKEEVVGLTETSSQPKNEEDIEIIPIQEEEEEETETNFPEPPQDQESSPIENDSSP
# ASSAY INFO: cell-based or functional assay
RECORDED METRIC: CDC (10 ug/ml), RAJI

# BINDER, ENDPOINT VALUE
rows = [
    ("humanized 1K1791 antibody fv (FraL x VenH) (antibody, V domains shown, Kappa, gamma 1 construct; also called hz1791 fv; Fv010) VH: QIQLVQSGPELKKPGASVKISCKASGYTFTNFGVNWVKQAPGKGLKWMGWINTYTGEPSYADDFKGRFAFSLDASVSTAYLQISSLKAEDTSTYFCTRRTNYYGTSYYYAMDYWGQGTTVTVSS VL: STVMTQSPSFLSASVGDRVTITCKASQSVSNDVAWYQQKPGQSPKVLIYFASNRYTGVPDRFSGSGYGTDFTLTISSLQAEDVAVYFCQQDYSSPLTFGAGTKLEIK", "99 relative, c2B8 = 100"),
    ("chimerized 1K1791 antibody (c1791) (antibody, V domains shown) VH: QIQLVQSGPELKKPGETVKISCKASGYTFTNFGVNWVKQAPGKGLKWMGWINTYTGEPSYADDFKGRFAFSLEASANTAYLQINNLKNDDMSTYFCTRRTNYYGTSYYYAMDYWGQGTSVTVSS VL: STVMTQTPKFLLVSAGDRVTITCKASQSVSNDVAWYQQKPGQSPKVLIYFASNRYTGVPDRFTGSGYGTDFTFTINTVQAEDLAVYFCQQDYSSPLTFGAGTKLELK", "99 relative, c2B8 = 100"),
    ("humanized 1K1791 antibody ff (FraL x FraH) (antibody, V domains shown, Kappa, gamma 1 construct; also called hz1791 ff; Ff019) VH: QIQLVQSGSELKKPGASVKVSCKASGYTFTNFGVNWVKQAPGKGLKWMGWINTYTGEPSYADDFKGRFAFSLDASASTAYLQISSLKAEDMATYFCTRRTNYYGTSYYYAMDYWGQGTTVTVSS VL: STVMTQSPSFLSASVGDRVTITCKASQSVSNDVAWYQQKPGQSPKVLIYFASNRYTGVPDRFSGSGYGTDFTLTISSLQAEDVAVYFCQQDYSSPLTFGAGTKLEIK", "98 relative, c2B8 = 100"),
]

Source listed as patent US20090203886A1.
